Some compounds, each annotated with its measured Kd.
biological target: Mouse NGF (Mus musculus); assay: SPR binding affinity of analogs to immobilized NGF; details: read-out: KD, binding affinity to immobilized NGF, two-site steady-state analysis, 0.70-200 μmol/L, 25 °C, mean of triplicate
Sequence (P01139 122-241): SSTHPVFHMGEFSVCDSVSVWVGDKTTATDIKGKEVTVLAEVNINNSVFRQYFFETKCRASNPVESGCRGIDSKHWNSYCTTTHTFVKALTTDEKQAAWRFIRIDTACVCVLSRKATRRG
Kindly provide the numeric value in µM only, without the unit symbol.

Cn1c2ccc(NC(=O)c3ccccc3)cc2c(=O)n2nc(C(=O)O)cc12 [PD 90780]; 35.8

Let us examine a further case.
Request: Look at this compound and give its reported Kd. Cc1cc2nc3c(=O)[nH]c(=O)nc-3n(C)c2cc1C=O [Ro 08‐2750]
Result: 32.4
